Molecular target: p110α/p85α (Bos taurus, UniProt P32871)
Construct: purchased Upstate (Charlottesville, Va.)
Sequence (P32871 whole entry): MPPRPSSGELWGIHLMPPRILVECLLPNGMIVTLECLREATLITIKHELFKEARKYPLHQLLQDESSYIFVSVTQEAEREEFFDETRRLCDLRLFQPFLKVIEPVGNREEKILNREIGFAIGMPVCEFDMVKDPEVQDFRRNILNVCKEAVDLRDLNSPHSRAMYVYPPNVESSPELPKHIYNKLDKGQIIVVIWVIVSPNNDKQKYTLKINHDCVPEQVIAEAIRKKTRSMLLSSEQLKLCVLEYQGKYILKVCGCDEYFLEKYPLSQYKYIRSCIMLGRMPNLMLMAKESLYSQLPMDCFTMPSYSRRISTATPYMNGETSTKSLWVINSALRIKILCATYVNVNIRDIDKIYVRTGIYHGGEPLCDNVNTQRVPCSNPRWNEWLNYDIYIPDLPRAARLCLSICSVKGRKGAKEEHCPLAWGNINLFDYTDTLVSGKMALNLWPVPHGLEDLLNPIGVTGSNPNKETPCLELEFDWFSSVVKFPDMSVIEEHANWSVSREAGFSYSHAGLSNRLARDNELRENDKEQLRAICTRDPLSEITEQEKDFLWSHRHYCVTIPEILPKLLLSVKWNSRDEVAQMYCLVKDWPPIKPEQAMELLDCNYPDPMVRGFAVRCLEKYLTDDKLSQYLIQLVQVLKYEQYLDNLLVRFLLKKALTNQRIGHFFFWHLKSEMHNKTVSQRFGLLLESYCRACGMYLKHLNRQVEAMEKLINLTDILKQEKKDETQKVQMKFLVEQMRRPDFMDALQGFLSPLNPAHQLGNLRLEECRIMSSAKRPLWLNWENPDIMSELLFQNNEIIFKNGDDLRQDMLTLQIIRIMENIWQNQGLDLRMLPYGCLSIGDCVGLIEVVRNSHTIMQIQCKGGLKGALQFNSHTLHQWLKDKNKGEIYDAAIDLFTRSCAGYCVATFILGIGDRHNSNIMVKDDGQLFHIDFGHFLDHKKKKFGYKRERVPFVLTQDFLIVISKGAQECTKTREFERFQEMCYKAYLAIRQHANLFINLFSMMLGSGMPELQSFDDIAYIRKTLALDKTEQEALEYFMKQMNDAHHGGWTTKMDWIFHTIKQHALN
Sequence (P23727 2-724 partner): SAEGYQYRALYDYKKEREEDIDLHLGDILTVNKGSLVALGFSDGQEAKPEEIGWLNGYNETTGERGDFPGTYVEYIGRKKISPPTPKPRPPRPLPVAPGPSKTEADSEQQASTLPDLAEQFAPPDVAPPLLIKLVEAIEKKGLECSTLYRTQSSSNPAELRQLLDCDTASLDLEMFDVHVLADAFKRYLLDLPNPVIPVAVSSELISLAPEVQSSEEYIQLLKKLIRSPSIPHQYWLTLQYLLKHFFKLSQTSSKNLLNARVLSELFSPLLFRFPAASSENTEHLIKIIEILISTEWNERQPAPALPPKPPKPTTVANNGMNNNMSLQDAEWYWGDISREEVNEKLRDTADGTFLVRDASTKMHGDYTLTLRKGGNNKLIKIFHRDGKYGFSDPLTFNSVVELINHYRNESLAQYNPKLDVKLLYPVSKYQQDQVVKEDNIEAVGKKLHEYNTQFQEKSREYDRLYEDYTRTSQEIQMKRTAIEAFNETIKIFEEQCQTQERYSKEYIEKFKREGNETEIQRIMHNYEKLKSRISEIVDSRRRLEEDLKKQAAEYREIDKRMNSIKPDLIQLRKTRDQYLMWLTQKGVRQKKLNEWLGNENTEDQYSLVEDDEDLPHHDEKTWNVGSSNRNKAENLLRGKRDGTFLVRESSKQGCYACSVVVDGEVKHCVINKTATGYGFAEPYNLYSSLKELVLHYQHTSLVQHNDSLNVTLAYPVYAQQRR
Experiment: Inhibition of recombinant PtdIns-3-kinase, [32P]-ATP dependent phosphorylation of PtdIns
Assay type: biochemical, bovine
Details: recombinant enzyme; read-out: IC50, PtdIns-3-kinase p110α/p85α
endpoint: IC50 (nM)
Answer format: numeric, nM implied, no suffix.

Form field: reported IC50 of C=CCN(/C=C1/C(=O)O[C@H](COC)[C@@]2(C)C1=C(O)C(=O)C1=C2[C@H](OC(C)=O)C[C@]2(C)C(=O)CC[C@@H]12)CC=C
5.5

###

Target: p110α/p85α (Bos taurus, UniProt P32871)
Construct: purchased Upstate (Charlottesville, Va.)
Experiment: Inhibition of recombinant PtdIns-3-kinase, [32P]-ATP dependent phosphorylation of PtdIns
Format: biochemical, bovine
endpoint: IC50 (nM)
Answer format: numeric, nM implied, no suffix.

Form field: reported IC50 of COC[C@H]1OC(=O)c2coc3c2[C@@]1(C)C1=C(C3=O)[C@@H]2CCC(=O)[C@@]2(C)C[C@H]1OC(C)=O [wortmannin, reference compound]
4

###

Biological target: p120γ (Homo sapiens)
Assay: Inhibition of recombinant PtdIns-3-kinase, [32P]-ATP dependent phosphorylation of PtdIns
Conditions: recombinant enzyme
endpoint: pIC50
Worth noting: pIC50 values are minus log10 of concentrations stated in mol/L.

Request: pIC50, test system p120γ (Homo sapiens), entry C=CCN(/C=C1/C(=O)O[C@H](COC)[C@@]2(C)C1=C(O)C(=O)C1=C2[C@H](OC(C)=O)C[C@]2(C)C(=O)CC[C@@H]12)CC=C [PX-866]
8.05

###

Experiment: Pharmacokinetics of PX-866 in mouse plasma
Format: in vivo
Conditions: intravenous, intraperitoneal and oral administration; mouse plasma (FIG. 2)
endpoint: half-life

Form field: reported half-life of C=CCN(/C=C1/C(=O)O[C@H](COC)[C@@]2(C)C1=C(O)C(=O)C1=C2[C@H](OC(C)=O)C[C@]2(C)C(=O)CC[C@@H]12)CC=C
~16 h

###

Target: p110β/p85α (Homo sapiens, UniProt P42338)
Sequence (P42338 whole entry): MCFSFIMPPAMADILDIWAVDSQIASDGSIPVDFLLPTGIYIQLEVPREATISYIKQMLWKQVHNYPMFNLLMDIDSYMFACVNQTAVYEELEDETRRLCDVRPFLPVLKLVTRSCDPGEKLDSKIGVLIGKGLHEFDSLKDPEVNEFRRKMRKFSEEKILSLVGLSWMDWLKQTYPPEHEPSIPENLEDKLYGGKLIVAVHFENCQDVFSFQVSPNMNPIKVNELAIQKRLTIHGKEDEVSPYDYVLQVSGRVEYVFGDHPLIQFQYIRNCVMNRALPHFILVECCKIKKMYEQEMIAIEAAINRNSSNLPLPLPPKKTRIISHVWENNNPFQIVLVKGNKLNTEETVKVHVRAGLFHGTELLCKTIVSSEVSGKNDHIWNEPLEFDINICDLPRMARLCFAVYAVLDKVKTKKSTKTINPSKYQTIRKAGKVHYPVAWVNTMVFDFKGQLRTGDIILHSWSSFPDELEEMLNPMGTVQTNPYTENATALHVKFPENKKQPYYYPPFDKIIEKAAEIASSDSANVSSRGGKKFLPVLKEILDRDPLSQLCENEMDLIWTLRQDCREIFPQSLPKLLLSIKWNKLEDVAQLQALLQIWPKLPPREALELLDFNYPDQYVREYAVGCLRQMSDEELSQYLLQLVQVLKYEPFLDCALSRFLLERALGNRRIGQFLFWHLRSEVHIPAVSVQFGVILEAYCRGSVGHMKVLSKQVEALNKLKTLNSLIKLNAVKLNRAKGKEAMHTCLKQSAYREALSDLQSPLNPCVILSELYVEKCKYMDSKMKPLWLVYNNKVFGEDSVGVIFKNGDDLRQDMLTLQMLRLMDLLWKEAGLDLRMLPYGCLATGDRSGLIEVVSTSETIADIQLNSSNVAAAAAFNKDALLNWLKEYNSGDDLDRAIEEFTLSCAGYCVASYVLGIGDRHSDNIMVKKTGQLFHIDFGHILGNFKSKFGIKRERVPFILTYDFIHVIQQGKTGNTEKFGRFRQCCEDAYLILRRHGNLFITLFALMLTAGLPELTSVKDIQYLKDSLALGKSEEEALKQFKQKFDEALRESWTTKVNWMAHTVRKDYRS
Sequence (P27986 whole entry partner): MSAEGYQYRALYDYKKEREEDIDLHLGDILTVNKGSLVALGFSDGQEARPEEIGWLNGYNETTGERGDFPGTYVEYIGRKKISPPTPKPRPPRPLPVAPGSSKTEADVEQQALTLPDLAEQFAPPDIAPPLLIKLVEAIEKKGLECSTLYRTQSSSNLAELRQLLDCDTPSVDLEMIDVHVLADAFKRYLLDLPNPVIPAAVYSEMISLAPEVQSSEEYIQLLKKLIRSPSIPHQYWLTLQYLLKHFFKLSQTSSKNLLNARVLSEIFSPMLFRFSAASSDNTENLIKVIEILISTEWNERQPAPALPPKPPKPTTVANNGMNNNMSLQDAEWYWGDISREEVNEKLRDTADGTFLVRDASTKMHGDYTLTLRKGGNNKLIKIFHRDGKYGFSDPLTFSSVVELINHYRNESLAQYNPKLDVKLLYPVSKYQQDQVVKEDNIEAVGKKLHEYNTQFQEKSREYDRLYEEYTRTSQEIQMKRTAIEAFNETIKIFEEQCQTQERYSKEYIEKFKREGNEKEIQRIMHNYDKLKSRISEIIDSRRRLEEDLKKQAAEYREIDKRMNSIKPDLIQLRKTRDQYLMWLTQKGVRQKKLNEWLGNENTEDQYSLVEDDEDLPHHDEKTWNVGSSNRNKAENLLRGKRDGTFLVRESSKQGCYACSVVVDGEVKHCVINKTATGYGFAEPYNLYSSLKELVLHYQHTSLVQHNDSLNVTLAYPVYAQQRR
Test: Inhibition of recombinant PtdIns-3-kinase, [32P]-ATP dependent phosphorylation of PtdIns
Details: recombinant enzyme
endpoint: IC50

Form field: reported IC50 of C=CCN(/C=C1/C(=O)O[C@H](COC)[C@@]2(C)C1=C(O)C(=O)C1=C2[C@H](OC(C)=O)C[C@]2(C)C(=O)CC[C@@H]12)CC=C
> 300 nM

###

Molecular target: p110δ/p85α (Homo sapiens, UniProt O00329)
Sequence (O00329 whole entry): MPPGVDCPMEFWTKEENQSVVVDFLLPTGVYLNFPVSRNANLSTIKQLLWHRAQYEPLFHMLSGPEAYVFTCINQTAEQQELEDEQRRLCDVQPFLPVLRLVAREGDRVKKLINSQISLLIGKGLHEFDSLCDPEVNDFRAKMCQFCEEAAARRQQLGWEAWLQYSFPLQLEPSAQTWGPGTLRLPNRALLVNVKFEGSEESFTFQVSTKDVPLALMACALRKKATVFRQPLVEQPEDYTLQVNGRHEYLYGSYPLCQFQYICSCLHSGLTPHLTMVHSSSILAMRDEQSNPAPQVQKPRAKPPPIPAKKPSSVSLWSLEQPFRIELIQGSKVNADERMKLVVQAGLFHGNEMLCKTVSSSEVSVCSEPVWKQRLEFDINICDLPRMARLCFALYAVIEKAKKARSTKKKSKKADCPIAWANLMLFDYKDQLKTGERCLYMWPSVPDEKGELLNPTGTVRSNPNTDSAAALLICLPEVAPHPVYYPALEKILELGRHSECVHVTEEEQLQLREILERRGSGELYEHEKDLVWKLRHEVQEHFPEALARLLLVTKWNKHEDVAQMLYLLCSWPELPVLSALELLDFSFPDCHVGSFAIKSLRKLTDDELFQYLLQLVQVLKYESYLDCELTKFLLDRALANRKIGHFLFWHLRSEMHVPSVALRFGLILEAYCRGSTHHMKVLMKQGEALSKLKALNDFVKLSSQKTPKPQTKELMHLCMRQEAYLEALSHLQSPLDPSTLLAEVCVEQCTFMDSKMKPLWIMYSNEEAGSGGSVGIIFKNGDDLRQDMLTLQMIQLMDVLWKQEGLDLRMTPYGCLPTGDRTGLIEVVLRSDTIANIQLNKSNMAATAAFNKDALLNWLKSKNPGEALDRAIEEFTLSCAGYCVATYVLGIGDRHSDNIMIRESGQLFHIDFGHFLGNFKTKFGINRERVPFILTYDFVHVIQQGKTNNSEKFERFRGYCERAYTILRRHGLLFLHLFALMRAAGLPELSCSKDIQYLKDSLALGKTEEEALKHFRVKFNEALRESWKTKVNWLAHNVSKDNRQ
Sequence (P27986 whole entry partner): as the sequence (P27986 whole entry partner) above
Assay: Inhibition of recombinant PtdIns-3-kinase, [32P]-ATP dependent phosphorylation of PtdIns
Conditions: recombinant enzyme
endpoint: IC50 (nM)
Answer format: numeric, nM implied, no suffix.

Form field: reported IC50 of C=CCN(/C=C1/C(=O)O[C@H](COC)[C@@]2(C)C1=C(O)C(=O)C1=C2[C@H](OC(C)=O)C[C@]2(C)C(=O)CC[C@@H]12)CC=C [PX-866]
2.7
